Measurement Target: Nav 1.7 (Homo sapiens (Human), UniProt Q15858)
Sequence (Q15858 whole entry): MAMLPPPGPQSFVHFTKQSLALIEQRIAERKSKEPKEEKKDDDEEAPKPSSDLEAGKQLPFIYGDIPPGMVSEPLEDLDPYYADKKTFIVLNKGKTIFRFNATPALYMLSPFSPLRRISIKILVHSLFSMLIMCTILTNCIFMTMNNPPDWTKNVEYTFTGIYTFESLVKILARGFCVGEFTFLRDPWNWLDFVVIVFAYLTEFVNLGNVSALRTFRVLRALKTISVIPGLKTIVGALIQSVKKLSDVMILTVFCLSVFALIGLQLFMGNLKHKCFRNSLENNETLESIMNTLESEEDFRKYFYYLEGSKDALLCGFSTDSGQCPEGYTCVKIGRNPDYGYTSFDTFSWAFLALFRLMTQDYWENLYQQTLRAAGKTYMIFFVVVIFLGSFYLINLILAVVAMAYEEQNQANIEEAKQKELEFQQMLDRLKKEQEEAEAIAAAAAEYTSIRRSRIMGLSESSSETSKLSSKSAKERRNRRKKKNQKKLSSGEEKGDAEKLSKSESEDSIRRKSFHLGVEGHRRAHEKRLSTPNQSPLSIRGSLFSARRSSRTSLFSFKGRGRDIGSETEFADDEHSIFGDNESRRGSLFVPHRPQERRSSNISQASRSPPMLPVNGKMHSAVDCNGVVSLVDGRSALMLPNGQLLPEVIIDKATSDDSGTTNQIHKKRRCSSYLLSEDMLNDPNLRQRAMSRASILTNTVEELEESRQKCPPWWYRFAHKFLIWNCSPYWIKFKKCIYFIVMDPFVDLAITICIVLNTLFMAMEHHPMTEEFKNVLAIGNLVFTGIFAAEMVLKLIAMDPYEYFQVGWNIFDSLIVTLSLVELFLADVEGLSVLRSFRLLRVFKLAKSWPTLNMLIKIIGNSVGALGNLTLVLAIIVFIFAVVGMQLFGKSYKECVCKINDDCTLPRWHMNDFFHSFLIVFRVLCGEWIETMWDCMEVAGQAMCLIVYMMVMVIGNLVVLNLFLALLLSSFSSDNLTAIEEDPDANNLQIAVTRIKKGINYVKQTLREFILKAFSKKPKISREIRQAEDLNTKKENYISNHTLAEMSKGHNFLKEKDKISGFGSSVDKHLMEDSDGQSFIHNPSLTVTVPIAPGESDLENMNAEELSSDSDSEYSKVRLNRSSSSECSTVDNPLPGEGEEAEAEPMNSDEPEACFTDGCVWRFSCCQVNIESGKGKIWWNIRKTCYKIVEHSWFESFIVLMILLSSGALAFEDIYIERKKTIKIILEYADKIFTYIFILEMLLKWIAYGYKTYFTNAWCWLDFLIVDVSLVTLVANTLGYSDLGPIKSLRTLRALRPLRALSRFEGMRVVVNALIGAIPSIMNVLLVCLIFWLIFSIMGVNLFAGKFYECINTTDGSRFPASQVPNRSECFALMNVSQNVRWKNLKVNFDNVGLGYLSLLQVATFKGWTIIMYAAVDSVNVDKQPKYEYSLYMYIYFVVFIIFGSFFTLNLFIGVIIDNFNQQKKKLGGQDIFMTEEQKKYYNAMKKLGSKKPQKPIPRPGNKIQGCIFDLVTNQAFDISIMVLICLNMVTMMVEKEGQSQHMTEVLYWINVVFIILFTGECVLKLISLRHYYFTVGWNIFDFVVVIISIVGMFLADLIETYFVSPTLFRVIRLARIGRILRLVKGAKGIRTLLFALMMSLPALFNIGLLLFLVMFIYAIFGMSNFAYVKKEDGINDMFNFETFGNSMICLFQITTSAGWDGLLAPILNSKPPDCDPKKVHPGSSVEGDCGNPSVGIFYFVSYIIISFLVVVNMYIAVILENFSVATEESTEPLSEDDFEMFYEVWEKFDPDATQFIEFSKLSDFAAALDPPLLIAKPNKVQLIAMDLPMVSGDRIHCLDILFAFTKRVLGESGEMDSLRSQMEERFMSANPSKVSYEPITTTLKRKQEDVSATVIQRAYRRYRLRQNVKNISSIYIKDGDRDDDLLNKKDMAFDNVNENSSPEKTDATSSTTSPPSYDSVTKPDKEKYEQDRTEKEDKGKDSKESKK
Protocol Text: Nav 1.7 IWQ in vitro assay (IonWorks Quattro population patch-clamp)
Assay type: cell-based
Particulars: 293 cells stably transfected with Nav 1.7; second part of table; read-out: Nav1.7 IWQ IC50 IP
Experimental: Nav 1.7 or Nav 1.5 IWQ In Vitro Assay 293 Cells stably transfected with either Nav 1.7 or Nav 1.5 were recorded in population patch-clamp mode with the IonWorks® Quattro automated electrophysiology system in accordance with the manufacturer's specifications (Molecular Devices, LLC, Sunnyvale, Calif.). Sodium channel currents were measured in response to a train of depolarizations that induced successively greater inactivation. […]
pIC50: −log10 of the molar value.
Value Kind: pIC50

# annotated cases, reported pIC50 shown
>>> numeric_value("COc1cc(C(F)(F)F)ccc1-c1nccc2cc(S(=O)(=O)Nc3ccncn3)cnc12")
5.40
>>> numeric_value("COc1cc2ccccc2cc1-c1nccc2cc(S(=O)(=O)Nc3ccncn3)ccc12")
7.52
>>> numeric_value("N#Cc1cccc(COc2nccc3cc(S(=O)(=O)Nc4ccncn4)ccc23)c1")
5.41
>>> numeric_value("Cn1c(-c2cccc3cc(S(=O)(=O)Nc4ccncn4)ccc23)cc2cc(F)ccc21")
5.80
>>> numeric_value("COc1cc(C(F)(F)F)ccc1-c1nccc2cc(S(=O)(=O)Nc3ccnc(C)n3)ccc12")
5.37
>>> numeric_value("O=S(=O)(Nc1nccs1)c1ccc2c(N3CCC[C@@H]3c3ccccc3)nccc2c1")
6.85
>>> numeric_value("O=S(=O)(Nc1nccs1)c1ccc2c(-c3ccc(C(F)(F)F)cc3Cl)ccnc2c1")
6.66
>>> numeric_value("O=S(=O)(Nc1ncc(F)s1)c1ccc2c(-c3ccc(C(F)(F)F)cc3C3=CCNCC3)cccc2c1")
6.77

P: COc1ccc(Cl)cc1-c1nccc2cc(S(=O)(=O)Nc3ccncn3)ccc12
Q: COc1c(-c2nccc3cc(S(=O)(=O)Nc4ccncn4)ccc23)cccc1C(F)(F)F
IN: Choose between P and Q : whose measured pIC50 value is numerically larger? Indicate which entry you chose by stating its label.
OUT: P
(P: 7.52, Q: 5.17)

a: COc1cc(Cl)ccc1-c1ccnc2cc(S(=O)(=O)Nc3nccs3)ccc12
b: COc1cccc(OC)c1-c1nccc2cc(S(=O)(=O)Nc3ccncn3)ccc12
IN: Which has the higher pIC50, a or b ? // output: label of the selected item
OUT: a
(a: 7.40, b: 6.14)

I: O=S(=O)(Nc1ccncn1)c1ccc2c(-c3ccc(C(F)(F)F)cc3C3(F)CNC3)cccc2c1
II: Cc1nn(-c2ccccc2)nc1COc1nccc2cc(S(=O)(=O)Nc3ccncn3)ccc12
IN: Sorting ascending by pIC50, which comes first: I or II ? Return value: the label identifying the chosen record.
OUT: II

A: CNc1cc2cc(S(=O)(=O)Nc3nccs3)ccc2c(-c2ccc(C(F)(F)F)cc2OC)n1
B: COc1cc(C(F)(F)F)ccc1-c1nc(N(C)C)cc2cc(S(=O)(=O)Nc3nccs3)ccc12
C: COc1ccccc1-c1nncc2cc(S(=O)(=O)Nc3nccs3)ccc12
IN: In this exercise, place the 3 molecules in ascending sequence of their recorded pIC50. Answer with the labels in sequence, matching the requested order.
OUT: B, C, A

----------
Measurement Target: Nav 1.7 (Homo sapiens (Human), UniProt Q15858)
Protocol Text: Nav 1.7 IWQ in vitro assay (IonWorks Quattro population patch-clamp)
Format: cell-based
Particulars: at […]
Value Kind: Nav1.7 Single Point Data IWQ (at […]) (%)

Reference set (3 entries):
>>> numeric_value("CC(C)(C#N)c1ccccc1-c1nccc2cc(S(=O)(=O)Nc3nccs3)ccc12")
25.3
>>> numeric_value("COc1cc(-c2ccncc2)ccc1-c1nccc2cc(S(=O)(=O)Nc3ccncn3)ccc12")
27.5
>>> numeric_value("N#Cc1cccc2cc(S(=O)(=O)Nc3ncns3)ccc12")
30

1: Cn1ncc2cccc(-c3nccc4cc(S(=O)(=O)Nc5ccncn5)ccc34)c21
2: Cc1cc(S(=O)(=O)N(C)C)ccc1-c1nccc2cc(S(=O)(=O)Nc3ccncn3)ccc12
IN: Kindly identify the item with the lower Nav1.7 Single Point Data IWQ (at […]) (%) figure among these two: 1 and 2 Bench note: the answer is the label of the chosen record.
OUT: 2

----------
Measurement Target: Nav 1.7 (Homo sapiens (Human))
Protocol Text: Nav 1.7 in vitro PX assay (PatchXpress whole cell voltage clamp)
Format: cell-based
Particulars: 293 cells, human Nav1.7, partially inactivated state; read-out: Nav1.7 PX IC50 IP
pIC50: −log10 of the molar value.
Value Kind: pIC50

Example molecules with recorded pIC50:
>>> numeric_value("N#CCOc1cc(Cl)ccc1-c1nccc2cc(S(=O)(=O)Nc3ccncn3)ccc12 [Example 376, 2,2,2-TRIFLUOROACETATE]")
5.53
>>> numeric_value("COc1cc(C(F)(F)F)ccc1-c1nccc2cc(S(=O)(=O)Nc3ccc(F)cn3)ccc12")
5.35

a: COc1cc(-c2cc(F)cc(C#N)c2)ccc1-c1nccc2cc(S(=O)(=O)Nc3ccncn3)ccc12
b: COc1ccccc1-c1c(Br)cnc2cc(S(=O)(=O)Nc3nccs3)ccc12
c: COc1cc(C(F)F)c(C2CC2)cc1-c1nccc2cc(S(=O)(=O)Nc3ccncn3)ccc12
d: Cc1cc(C#N)ccc1-c1nccc2cc(S(=O)(=O)Nc3nccs3)ccc12 [Example 210, 2,2,2-TRIFLUOROACETATE]
IN: Please list these in order of increasing pIC50. Thank you! List the labels, following the order given in the request.
OUT: b, d, c, a

a: COc1cc(-c2ccc(F)c(C)c2)ccc1-c1nccc2cc(S(=O)(=O)Nc3ccncn3)ccc12
b: COc1cc(C(F)F)ccc1-c1ncnc2cc(S(=O)(=O)Nc3nccs3)ccc12
IN: a or b : whose pIC50 is greater? Response format: the label of the selected entry.
OUT: a
(a: 7.00, b: 6.55)

----------
Measurement Target: Nav 1.7 (Homo sapiens (Human))
Protocol Text: Nav 1.7 IWQ in vitro assay (IonWorks Quattro population patch-clamp)
Format: cell-based
Particulars: at […]
Value Kind: Nav1.7 Single Point Data IWQ (at […]) (%)

>>> numeric_value("COc1cc(C(F)(F)F)ccc1-c1nccc2cc(S(=O)(=O)Nc3cnncn3)ccc12")
34.8

1: CC(C)c1ccc2[nH]ncc2c1-c1nccc2cc(S(=O)(=O)Nc3ccncn3)ccc12
2: O=S(=O)(Nc1ncns1)c1ccc2c(N3CCCC3c3ccncc3)ncnc2c1 (stereo not shown)
IN: Which entry has a larger number for Nav1.7 Single Point Data IWQ (at […]) (%), 1 or 2 ? Selection: enter the item's label.
OUT: 1

----------
Measurement Target: UniProt Q15858
Protocol Text: Nav 1.7 IWQ in vitro assay (IonWorks Quattro population patch-clamp)
Assay type: cell-based
Particulars: 293 cells stably transfected with Nav 1.7; second part of table; read-out: Nav1.7 IWQ IC50 IP
Value Kind: IC50 (nM)

Reference set (2 entries):
>>> numeric_value("COC(=N)c1cc(C(F)(F)F)ccc1-c1nccc2cc(S(=O)(=O)Nc3nccs3)ccc12 [Example 226]")
90
>>> numeric_value("COc1cc(C#N)ccc1-c1ncc(F)c2cc(S(=O)(=O)Nc3ccncn3)ccc12 [Example 218]")
70

A: COc1ccccc1-c1ccnc2cc(S(=O)(=O)Nc3nccs3)ccc12 [Example 277]
B: COc1cc(NS(=O)(=O)c2ccc3c(-c4ccc(C(F)(F)F)cc4OC)nccc3c2)ncn1 [Example 181]
IN: Among A and B , whose measured IC50 is the smaller figure? Write down the label of the entry you select.
OUT: A
(A: 70 nM, B: 110 nM)

----------
Measurement Target: Nav 1.7 (Homo sapiens (Human), UniProt Q15858)
Protocol Text: Nav 1.7 IWQ in vitro assay (IonWorks Quattro population patch-clamp)
Type: cell-based
Particulars: 293 cells stably transfected with Nav 1.7; second part of table; read-out: Nav1.7 IWQ IC50 IP
Method: Nav 1.7 or Nav 1.5 IWQ In Vitro Assay 293 Cells stably transfected with either Nav 1.7 or Nav 1.5 were recorded in population patch-clamp mode with the IonWorks® Quattro automated electrophysiology system in accordance with the manufacturer's specifications (Molecular Devices, LLC, Sunnyvale, Calif.). Sodium channel currents were measured in response to a train of depolarizations that induced successively greater inactivation. […]
pIC50: −log10 of the molar value.
Value Kind: pIC50

Illustrative cases are given below, each with its answer.
>>> numeric_value("COc1ccccc1-c1nccc2cc(S(=O)(=O)Nc3ccncn3)ccc12 [Example 140]")
7.05
>>> numeric_value("O=S(=O)(Nc1ncns1)c1ccc2c(N3CCCC3c3ccccc3)nccc2c1 (centres unmarked) [Example 236]")
6.89
>>> numeric_value("COc1ccccc1-c1nccc2cc(S(=O)(=O)Nc3ncns3)ccc12 [Example 194]")
8.00

a: COc1cc(C(F)(F)F)ccc1-c1nc(C#N)cc2cc(S(=O)(=O)Nc3nccs3)ccc12 [Example 220]
b: COc1c(F)cccc1-c1nccc2cc(S(=O)(=O)Nc3ccncn3)ccc12 [Example 157]
IN: Among a and b , whose measured pIC50 is the smaller figure? Your choice should be expressed through its label.
OUT: b
(b: 5.19, a: 7.22)
